B1: SPDEF (parent)
chain: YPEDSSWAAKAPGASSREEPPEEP

variants of: B1; experiment: protein stability index of a GFP-peptide fusion (GPS, HEK-293T) (PSI 1-6); higher = more stable; settings: c terminus: a fixed tail appended;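 note: lentivirally expressed fusions sorted by FACS into six bins by GFP to DsRed ratio, PSI derived from sequencing read proportions per bin multiplied by bin number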
metric: protein stability index
Write the value as a bare number.

Solved entries:
A14R	4.16
E3H	3.05
S16Y	3.73
P24Y	4.17

// sample "P12S" , its protein stability index was 4.16

// sample "E23S" , its protein stability index was 3.1

// sample "E18S" , its protein stability index was 4.18
